# subject_of_test: Recombinant human JAK1 catalytic domain (Homo sapiens (Human))
# Sequence (P23458 850-1154): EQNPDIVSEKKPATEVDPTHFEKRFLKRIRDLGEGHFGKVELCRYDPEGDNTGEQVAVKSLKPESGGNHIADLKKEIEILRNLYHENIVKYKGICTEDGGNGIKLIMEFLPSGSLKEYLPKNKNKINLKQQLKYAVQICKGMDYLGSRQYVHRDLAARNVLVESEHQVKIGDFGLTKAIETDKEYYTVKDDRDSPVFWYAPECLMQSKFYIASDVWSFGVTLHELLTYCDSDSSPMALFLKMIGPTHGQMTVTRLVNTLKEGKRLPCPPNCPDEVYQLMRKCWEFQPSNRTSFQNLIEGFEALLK
# test_name: JAK1 inhibition assay
# Type: biochemical
# experimental_context: semi-quantitative score
Entries and their IC50 values follow.

{"compound": "O=C(Nc1nc2cccc(-c3ccc(C(=O)N4CCC(c5cc6ccccc6[nH]5)CC4)cc3)n2n1)C1CC1", "IC50": "< 100 nM"}
{"compound": "Cc1noc(C)c1CCOc1ccc(-c2cccc3nc(NC(=O)C4CC4)nn23)cc1", "IC50": "< 100 nM"}
{"compound": "O=C(Nc1nc2cccc(-c3ccc(C(=O)N4CCC(C(=O)c5ccccc5)CC4)cc3)n2n1)C1CC1", "IC50": "< 100 nM"}
{"compound": "CC(=O)N(Cc1ccccn1)c1ccc(-c2cccc3nc(NC(=O)C4CC4)nn23)cc1", "IC50": "< 100 nM"}
{"compound": "CN(C(=O)c1ccc(-c2cccc3nc(NC(=O)C4CC4)nn23)cc1)C1CCS(=O)(=O)C1 (stereo not shown)", "IC50": "< 100 nM"}
{"compound": "O=C(Nc1nc2cccc(-c3ccc(C(=O)N4CCCN(Cc5ccccc5)CC4)cc3)n2n1)C1CC1", "IC50": "< 100 nM"}
{"compound": "O=C(Cc1ccccc1)Nc1ccc(-c2cccc3nc(NC(=O)C4CC4)nn23)cc1", "IC50": "< 100 nM"}
{"compound": "O=C(Nc1nc2cccc(-c3ccc(NS(=O)(=O)C4CC4)nc3)n2n1)C1CC1", "IC50": "> 1000 nM"}
{"compound": "CCN(CC)C(=O)C1CCCN(C(=O)c2ccc(-c3cccc4nc(NC(=O)C5CC5)nn34)cc2)C1 (stereo not shown)", "IC50": "101 to 500 nM"}
{"compound": "CCN(CC)C1CCN(Cc2ccc(-c3cccc4nc(NC(=O)C5CC5)nn34)cc2)CC1", "IC50": "> 1000 nM"}
{"compound": "O=C1CN(C(=O)c2ccc(-c3cccc4nc(NC(=O)C5CC5)nn34)cc2)CCN1", "IC50": "< 100 nM"}
{"compound": "NC(=O)c1ccccc1NCc1ccc(-c2cccc3nc(NC(=O)C4CC4)nn23)cc1", "IC50": "< 100 nM"}
{"compound": "O=C(Nc1nc2cccc(-c3ccc(C(=O)N4CCC(O)(c5ccccc5)CC4)cc3)n2n1)C1CC1", "IC50": "101 to 500 nM"}
{"compound": "CN(C)C1CCCN(C(=O)c2ccc(-c3cccc4nc(NC(=O)C5CC5)nn34)cc2)C1 (stereo not shown)", "IC50": "101 to 500 nM"}
{"compound": "O=C(Nc1nc2cccc(-c3ccc(C(=O)N4CCCCC4)cc3F)n2n1)C1CC1", "IC50": "< 100 nM"}
{"compound": "O=C(Nc1nc2cccc(-c3ccc(NS(=O)(=O)Cc4ccccc4)cc3)n2n1)C1CC1", "IC50": "< 100 nM"}

* * *

List of pEC50 values.
# Test system: MMP13 in SW1353 cells
# test_name: OSM/IL-1β signaling assay (MMP13 levels in SW1353 cells);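 further: secreted MMP13 captured by antibody, activated with APMA and its activity read by fluorescence, inhibition scaled between vehicle-treated triggered wells (0%) and untriggered wells (100%)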
# Assay type: cell-based
# experimental_context: Homo sapiens; SW1353 cells, OSM and IL-1β triggered, MMP13 levels 48 hours after triggering; read-out: MMP13 EC50
pEC50: −log10 of the molar value.

{"molecule": "Cc1cc(COc2ccc(-c3cccc4nc(NC(=O)C5CC5)nn34)cc2)nn1C [Compound 62]", "pEC50": "< 6.00"}
{"molecule": "O=C(NCCc1ccc(C(F)(F)F)cc1)c1ccc(-c2cccc3nc(NC(=O)C4CC4)nn23)cc1 [Compound 97]", "pEC50": "6.00 to 6.30"}
{"molecule": "O=C(Nc1nc2cccc(-c3ccc(C(=O)N4CCS(=O)(=O)CC4)cc3)n2n1)C1CC1 [Compound 207]", "pEC50": "< 6.00"}
{"molecule": "O=C(Nc1ccc(-c2cccc3nc(NC(=O)C4CC4)nn23)cc1)c1ccc(C(F)(F)F)cc1 [Compound 22]", "pEC50": "< 6.00"}
{"molecule": "O=C(Nc1nc2cccc(-c3ccc(CN4CCC(F)CC4)cc3)n2n1)C1CC1 [Compound 233]", "pEC50": "6.00 to 6.30"}
{"molecule": "Cc1noc(C)c1CCOc1ccc(-c2cccc3nc(NC(=O)C4CC4)nn23)cc1 [Compound 201]", "pEC50": "6.00 to 6.30"}
{"molecule": "CC1CCCCN1C(=O)c1ccc(-c2cccc3nc(NC(=O)C4CC4)nn23)cc1 (centres unmarked) [Compound 144]", "pEC50": "< 6.00"}
{"molecule": "O=C(Nc1nc2cccc(-c3ccc(CNC4CCS(=O)(=O)C4)cc3)n2n1)C1CC1 (centres unmarked) [Compound 304]", "pEC50": "< 6.00"}
{"molecule": "COc1c(F)ccc(NCc2ccc(-c3cccc4nc(NC(=O)C5CC5)nn34)cc2)c1F [Compound 245]", "pEC50": "< 6.00"}
{"molecule": "CC(Oc1ccc(-c2cccc3nc(NC(=O)C4CC4)nn23)cc1)c1ccccn1 (centres unmarked) [Compound 189]", "pEC50": "< 6.00"}
{"molecule": "O=C(Nc1nc2cccc(-c3ccc(C(=O)N4CCC(O)CC4)cc3)n2n1)C1CC1 [Compound 209]", "pEC50": "< 6.00"}
{"molecule": "O=C(Nc1nc2cccc(-c3ccc(OCc4ccc(-c5nnn[nH]5)nc4)cc3)n2n1)C1CC1 [Compound 183]", "pEC50": "< 6.00"}
{"molecule": "NC(=O)c1ccccc1NCc1ccc(-c2cccc3nc(NC(=O)C4CC4)nn23)cc1 [Compound 306]", "pEC50": "6.00 to 6.30"}
{"molecule": "CCCc1ccc(S(=O)(=O)Nc2ccc(-c3cccc4nc(NC(=O)C5CC5)nn34)cc2)cc1 [Compound 85]", "pEC50": "< 6.00"}
{"molecule": "N#CC1(C(=O)Nc2ccc(-c3cccc4nc(NC(=O)C5CC5)nn34)cc2)CC1 [Compound 177]", "pEC50": "< 6.00"}
{"molecule": "Cn1cnc(COc2ccc(-c3cccc4nc(NC(=O)C5CC5)nn34)cc2)n1 [Compound 199]", "pEC50": "< 6.00"}
{"molecule": "O=C(Nc1nc2cccc(-c3ccc(-c4cccnc4)cc3)n2n1)C1CC1 [Compound 66]", "pEC50": "< 6.00"}

meta.source: patent US10206907B2
